Molecular target: T1, KDR/VEGF complex (KDR-Fc mixed or saturated with VEGF) (human, UniProt P35968 20-764; P15692 27-191)
T1 construct: anisotropy: two fold molar excess of VEGF mixed with KDR-Fc; Biacore: KDR-Fc chip saturated with VEGF; also called KDR:VEGF165 complex
T1 sequence (P35968 20-764, chain 1 of 2): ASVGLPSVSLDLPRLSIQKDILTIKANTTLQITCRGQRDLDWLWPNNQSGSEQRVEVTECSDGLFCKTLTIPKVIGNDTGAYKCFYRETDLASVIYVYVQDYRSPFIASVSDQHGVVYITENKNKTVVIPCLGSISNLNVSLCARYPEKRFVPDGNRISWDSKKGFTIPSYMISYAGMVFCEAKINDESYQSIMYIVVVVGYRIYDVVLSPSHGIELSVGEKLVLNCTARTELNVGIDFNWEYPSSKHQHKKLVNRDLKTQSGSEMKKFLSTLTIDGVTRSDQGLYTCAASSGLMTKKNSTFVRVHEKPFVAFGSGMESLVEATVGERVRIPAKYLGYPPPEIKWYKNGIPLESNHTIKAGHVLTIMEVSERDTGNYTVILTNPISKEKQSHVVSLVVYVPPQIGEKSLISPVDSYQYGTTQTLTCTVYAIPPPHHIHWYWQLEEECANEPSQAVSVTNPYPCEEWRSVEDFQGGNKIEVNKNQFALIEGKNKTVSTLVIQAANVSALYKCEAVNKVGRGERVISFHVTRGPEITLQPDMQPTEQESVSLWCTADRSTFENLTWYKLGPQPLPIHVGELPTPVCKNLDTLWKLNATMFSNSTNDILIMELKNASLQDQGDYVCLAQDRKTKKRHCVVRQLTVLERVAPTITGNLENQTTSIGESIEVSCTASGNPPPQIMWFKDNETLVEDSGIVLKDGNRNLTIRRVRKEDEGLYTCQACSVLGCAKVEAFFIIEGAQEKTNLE
T1 sequence (P15692 other isoform, or with tags, fused parts or gaps, chain 2 of 2): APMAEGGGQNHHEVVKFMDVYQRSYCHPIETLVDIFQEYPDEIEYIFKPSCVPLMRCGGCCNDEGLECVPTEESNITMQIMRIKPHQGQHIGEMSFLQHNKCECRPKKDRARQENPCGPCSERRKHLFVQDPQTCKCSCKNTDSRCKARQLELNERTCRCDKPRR
Test: fluorescence anisotropy, fluorescein-labeled peptide, KDR-Fc with two fold excess VEGF
Bridge positions count the residues as written; N and C are the ends.
Here, each record is paired with measured Kd data.
Note: unit nM is implicit; provide only the numeric part.

Ac-AGMPWCVEKDHWDCWWWGTGGGK-NH2 (disulfide 6-14 (inferred); not fully specified; also: C-terminal Lys fluorescein-labeled in some assay forms) [SEQ ID NO:320] | 140

Could you share which Kd value was measured for Ac-AGPGPCKGYMPHQCWYMGTGGGK-NH2 (disulfide 6-14 (inferred); not fully specified; also: C-terminal Lys fluorescein-labeled in some assay forms) [SEQ ID NO:321] ? 60

Consider the binder Ac-AGYGPCAEMSPWLCWYPGTGGGK-NH2 (disulfide 6-14 (inferred); not fully specified; also: C-terminal Lys fluorescein-labeled in some assay forms) [SEQ ID NO:322] and give its measured Kd. 130

Using the record for Ac-AQAPAWTFGTNWRSIQRVDSLTGGGGGK-NH2 (not fully specified; also: C-terminal Lys fluorescein-labeled in some assay forms) [SEQ ID NO:325] , report its Kd. 840

Cited source: patent EP2014310A2
